The origin of these recorded values is the supplement of paper PMC10627819.

Tested on: B. subtilis 168;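 also: OD595 on entry to stationary phase over no-drug wells; at most 1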
PROTOCOL_DETAILS: fitness (endpoint OD595 vs no drug) (fraction); higher = more growth
RUN_PARAMETERS: first compound 0.125 µg/mL; partner 2.5 µg/mL
fitness for assorted compounds

{"columns": ["COMPOUND", "fitness"],
 "data": [
  ["CCCCCCCCCC(=O)N[C@@H](Cc1c[nH]c2ccccc12)C(=O)N[C@H](CC(N)=O)C(=O)N[C@@H](CC(=O)O)C(=O)N[C@@H]1C(=O)NCC(=O)N[C@@H](CCCN)C(=O)N[C@@H](CC(=O)O)C(=O)N[C@H](C)C(=O)N[C@@H](CC(=O)O)C(=O)NCC(=O)N[C@H](CO)C(=O)N[C@@H]([C@H](C)CC(=O)O)C(=O)N[C@@H](CC(=O)c2ccccc2N)C(=O)O[C@@H]1C [Daptomycin] + C[n+]1ccc(-c2cc[n+](C)cc2)cc1 [Paraquat]", 0.9],
  ["CCCCCCCCCC(=O)N[C@@H](Cc1c[nH]c2ccccc12)C(=O)N[C@H](CC(N)=O)C(=O)N[C@@H](CC(=O)O)C(=O)N[C@@H]1C(=O)NCC(=O)N[C@@H](CCCN)C(=O)N[C@@H](CC(=O)O)C(=O)N[C@H](C)C(=O)N[C@@H](CC(=O)O)C(=O)NCC(=O)N[C@H](CO)C(=O)N[C@@H]([C@H](C)CC(=O)O)C(=O)N[C@@H](CC(=O)c2ccccc2N)C(=O)O[C@@H]1C [Daptomycin] + Cc1ncc([N+](=O)[O-])n1CCO [Metronidazole]", 0.93],
  ["C[C@H]1COc2c(N3CCN(C)CC3)c(F)cc3c(=O)c(C(=O)O)cn1c23 [Levofloxacin] + C[n+]1ccc(-c2cc[n+](C)cc2)cc1", 0.0268],
  ["CCCCCCCCCC(=O)N[C@@H](Cc1c[nH]c2ccccc12)C(=O)N[C@H](CC(N)=O)C(=O)N[C@@H](CC(=O)O)C(=O)N[C@@H]1C(=O)NCC(=O)N[C@@H](CCCN)C(=O)N[C@@H](CC(=O)O)C(=O)N[C@H](C)C(=O)N[C@@H](CC(=O)O)C(=O)NCC(=O)N[C@H](CO)C(=O)N[C@@H]([C@H](C)CC(=O)O)C(=O)N[C@@H](CC(=O)c2ccccc2N)C(=O)O[C@@H]1C [Daptomycin] + CN1C2=CC=CC=C2N=C3C1=CC=CC3=O [Pyocyanin]", 0.846],
  ["CCCCCCCCCC(=O)N[C@@H](Cc1c[nH]c2ccccc12)C(=O)N[C@H](CC(N)=O)C(=O)N[C@@H](CC(=O)O)C(=O)N[C@@H]1C(=O)NCC(=O)N[C@@H](CCCN)C(=O)N[C@@H](CC(=O)O)C(=O)N[C@H](C)C(=O)N[C@@H](CC(=O)O)C(=O)NCC(=O)N[C@H](CO)C(=O)N[C@@H]([C@H](C)CC(=O)O)C(=O)N[C@@H](CC(=O)c2ccccc2N)C(=O)O[C@@H]1C [Daptomycin] + COc1cccc2c1C(=O)c1c(O)c3c(c(O)c1C2=O)C[C@@](O)(C(=O)CO)C[C@@H]3O[C@H]1C[C@H](N)[C@H](O)[C@H](C)O1 [Doxorubicin]", 0.628]
]}
